- TARGET: Cytochrome P450 3A4 (Homo sapiens) (UniProt P08684)
- Sequence (P08684 whole entry, looked up): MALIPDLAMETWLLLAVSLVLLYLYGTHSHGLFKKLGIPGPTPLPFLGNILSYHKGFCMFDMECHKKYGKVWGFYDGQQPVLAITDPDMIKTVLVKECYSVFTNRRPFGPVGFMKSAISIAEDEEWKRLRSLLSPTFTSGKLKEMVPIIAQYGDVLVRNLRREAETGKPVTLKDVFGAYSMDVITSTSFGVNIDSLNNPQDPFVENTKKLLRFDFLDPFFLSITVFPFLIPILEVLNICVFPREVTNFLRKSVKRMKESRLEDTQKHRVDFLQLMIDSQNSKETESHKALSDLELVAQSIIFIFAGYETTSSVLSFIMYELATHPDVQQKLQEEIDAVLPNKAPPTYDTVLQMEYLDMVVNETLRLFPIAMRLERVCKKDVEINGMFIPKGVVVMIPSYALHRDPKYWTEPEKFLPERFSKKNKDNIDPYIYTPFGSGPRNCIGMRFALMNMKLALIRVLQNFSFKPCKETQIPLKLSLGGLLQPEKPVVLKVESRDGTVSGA
- PROCEDURE_DETAILS: Cytochrome panel assay with activity outcomes; also: % is scaled to controls: 0 for no effect and ±100 for the full control effect
- RUN_CONDITIONS: recombinant CYP, pro-luciferin dealkylation, luminescence, p450-cyp3a4; series mostly up to 57.1 µM
Hit rate of the full screen: of about 16,000 compounds, about 5,100 (32%) were called active. About 25% were inconclusive and are not listed. Some of the results follow.
PROPERTY_NAME: activity, negative = inhibition

Example entries and their recorded answers appear below.
# STRUCTURE_AS_SMILES, activity, negative = inhibition
records = [
    ("C[C@@]12CC(=O)[C@H]3[C@@H](CCC4=CC(=O)CC[C@]43C)[C@H]1CCC2=O", "inactive"),
    ("COc1ccc(C[C@@H](N)c2ccc(OC)cc2)cc1", "-30.1% [at 11.4 µM] (inactive)"),
    ("N[C@H](Cn1ccc(=O)[nH]c1=O)C(=O)O", "inactive"),
    ("CC1=NCCc2c1[nH]c1cc(O)ccc21", "inactive"),
    ("CN1C(=O)COc2c(C(=O)N[C@@H]3CN4CCC3CC4)cc(Cl)cc21", "inactive"),
]

input: Quick check: activity, negative = inhibition of CCCN(CCC)CCc1c[nH]c2ccc(C(N)=O)cc12 ?
output: inactive

input: Quick check: activity, negative = inhibition of O=C1CC[C@]2(O)[C@H]3Cc4ccc(O)c5c4[C@@]2(CCN3CC2CC2)[C@@H]1O5 ?
output: inactive

input: Quick check: activity, negative = inhibition of c1cc(CN2CCC3(CCNCC3)CC2)ccn1 ?
output: inactive

input: Quick check: activity, negative = inhibition of NCC1(CC(=O)O)CCCCC1 ?
output: inactive

input: Quick check: activity, negative = inhibition of NS(=O)(=O)c1cc([C@@]2(O)NC(=O)c3ccccc32)ccc1Cl ?
output: inactive

input: Quick check: activity, negative = inhibition of CNCCc1cnc[nH]1 ?
output: inactive

input: Quick check: activity, negative = inhibition of N[C@H](C(=O)O)c1cc(=O)[nH]o1 ?
output: inactive

input: Quick check: activity, negative = inhibition of COc1cc2c(cc1OC)[C@@]13CCN4CC5=CCO[C@H](CC(=O)O)[C@@H]([C@H]1N2)[C@H]5C[C@H]43 ?
output: -10.2% [at 11.4 µM] (inactive)
